property-label: melting point

Entry `O=CN1CCN(c2ncc3c(=O)c(C(=O)O)c[nH]c3n2)CC1` — recorded melting point = > 300 °C

Record summary for `Cc1nccn1-c1nc(-c2ccc(Cl)cc2)c(CCCOc2ccccc2CCCO)o1` : reported melting point = 119 to 120 °C

Lab book: melting point of `COc1ccc(CSc2nnc(-c3ccc4[nH]ncc4c3)o2)cc1C#N` noted as 192 to 193 °C

---

I'd appreciate it if you could supply melting point values for the items below.

Recorded melting point (compound `N#Cc1ccc2c(c1)Nc1ccc(Cl)cc1S2` ): 235 °C

Sure, the documented melting point for `CC(C)OC(=O)c1cc(-n2c(=O)c3c(n(C)c2=O)CCC3)c(F)cc1Br` is 116 to 120 °C

Lab book: melting point of CCCCCC1(C#N)CCC(c2ccc(-c3ccc(CCC)cc3)cc2)CC1 (stereo unspecified) noted as 75 °C

Documented melting point of `CCOc1cc2c(Cl)c(C#N)cnc2cc1F` : 165 to 166 °C

Entry `CCCCN1C(=O)c2c(c(C)nn2C)Nc2ncccc21` — recorded melting point = 144 to 146 °C

Field melting point (entry `COc1cc(Nc2c(C#N)cnc3cc(-c4ccc(C=O)cc4)sc23)c(Cl)cc1Cl` ) reads 261 to 262 °C

Briefly, melting point measured for `CCNC(=O)c1ccc(N2CCN(Cc3cnc4c(c3)[nH]c(=O)n3cccc43)CC2)cc1` : 252 to 260 °C

Memo: O=C1CCCC(CNC(=O)c2cc(O)ccc2OCC(F)(F)F)N1 (stereo unspecified) , reported melting point: 156 to 158 °C

Recorded melting point (compound CCOC(=O)C1=C(C)Nc2n[nH]cc2C1c1ccccc1OC (stereo unspecified) ): 196 to 200 °C

// melting point value for `O=c1cc(-c2ccc(Br)cc2)oc2ccccc12` : 177 to 179 °C

Recorded result, CN1CCN(N=C2CC(c3ccc(C(F)(F)F)cc3)Cc3c2c(=O)c2cc(Cl)ccc2n3O)CC1 (stereo unspecified) , melting point: 213 °C

Measured values drawn from a melting point compilation (Tetko et al.; mined from patent text by program, amines drawn as free bases though some values may be those of a salt) for this set.
